Listing of recorded Protection by entry.
Tested on: Rattus norvegicus
Assay: Hepatoprotective activity against thioacetamide-induced toxicity in rats at a dose of 6 mg/Kg dose (p.o. x 7 days), expressed as % protection afforded in glutamate oxaloacetate transaminase (GOT) levels
Format: functional
measured.parameter: Protection

>>> print(df.to_string())
                                   compound  measured_parameter  recorded_measurement
0          CCO/C(O)=C(\C1=NCCCN1)c1nnc(N)s1          Protection                   26%
1  CCN1C(=O)C2C(=O)N(CC)C(=S)N3CCN(C1=S)C23 (stereo not drawn)          Protection                   20%
2           CCO/C(O)=C(\C1=NCCN1)c1nnc(N)s1          Protection                   33%
3  O=C1C2C(=O)N(c3ccccc3)C(=S)N3CCN(C(=S)N1c1ccccc1)C23 (stereo not drawn)          Protection                   27%
4  CCN1C(=N)C2C(=O)N(CC)C(=S)N3CCCN(C1=S)C23 (stereo not drawn)          Protection                   40%
5  CCN1C(=N)C2C(=O)N(CC)C(=S)N3CCN(C1=S)C23 (stereo not drawn)          Protection                   50%
6  Cc1ccccc1N1C(=O)C2C(=O)N(c3ccccc3C)C(=O)N3CCN(C1=O)C23 (stereo not drawn)          Protection                   18%
7    CC/N=C(/S)N1CCn2c1c(C#N)c(=O)n(CC)c2=S          Protection                   31%

---

System: Rattus norvegicus
Experiment: Hepatoprotective activity against thioacetamide-induced toxicity in rats at a dose of 6 mg/Kg dose (p.o. x 7 days), expressed as % protection afforded in serum bilirubin levels
Format: functional
measured.parameter: Protection (%)

                                   compound  measured_parameter  reading_unit  recorded_measurement
0    CC/N=C(/S)N1CCn2c1c(C#N)c(=O)n(CC)c2=S          Protection             %                    60
1           CCO/C(O)=C(\C1=NCCN1)c1nnc(N)s1          Protection             %                    53
2          CCO/C(O)=C(\C1=NCCCN1)c1nnc(N)s1          Protection             %                    22
3  CCN1C(=O)C2C(=O)N(CC)C(=S)N3CCN(C1=S)C23 (stereo not drawn)          Protection             %                    31
4  CCN1C(=N)C2C(=O)N(CC)C(=S)N3CCN(C1=S)C23 (stereo not drawn)          Protection             %                    57
5  Cc1ccccc1N1C(=O)C2C(=O)N(c3ccccc3C)C(=O)N3CCN(C1=O)C23 (stereo not drawn)          Protection             %                    18
6  O=C1C2C(=O)N(c3ccccc3)C(=S)N3CCN(C(=S)N1c1ccccc1)C23 (stereo not drawn)          Protection             %                    25
7  CCN1C(=N)C2C(=O)N(CC)C(=S)N3CCCN(C1=S)C23 (stereo not drawn)          Protection             %                    50

---

System: Rattus norvegicus
Test: Hepatoprotective activity against thioacetamide-induced toxicity in rats at a dose of 6 mg/Kg dose (p.o. x 7 days) expressed as % protection afforded in […] (ALP) levels
Type: functional
measured.parameter: Protection

>>> df
                                   molecule             target  recorded_measurement
0  CCN1C(=O)C2C(=O)N(CC)C(=S)N3CCN(C1=S)C23 (configuration not stated)  Rattus norvegicus                   22%
1  Cc1ccccc1N1C(=O)C2C(=O)N(c3ccccc3C)C(=O)N3CCN(C1=O)C23 (configuration not stated)  Rattus norvegicus                   16%
2  CCN1C(=N)C2C(=O)N(CC)C(=S)N3CCCN(C1=S)C23 (configuration not stated)  Rattus norvegicus                   48%
3          CCO/C(O)=C(\C1=NCCCN1)c1nnc(N)s1  Rattus norvegicus                   38%
4    CC/N=C(/S)N1CCn2c1c(C#N)c(=O)n(CC)c2=S  Rattus norvegicus                   56%
5  O=C1C2C(=O)N(c3ccccc3)C(=S)N3CCN(C(=S)N1c1ccccc1)C23 (configuration not stated)  Rattus norvegicus                   20%
6  CCN1C(=N)C2C(=O)N(CC)C(=S)N3CCN(C1=S)C23 (configuration not stated)  Rattus norvegicus                   17%

The measurements presented in this section are drawn from ChEMBL document CHEMBL1152110.
